# protein stability index values compiled below
B1: MATN2 (parent)
chain: VNVPGSFVCQCYSGYALAEDGKRC

- Variants of: B1
- test-protocol: protein stability index of a GFP-peptide fusion (GPS, HEK-293T) (PSI 1-6); higher = more stable;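 note: lentivirally expressed fusions sorted by FACS into six bins by GFP to DsRed ratio, PSI derived from sequencing read proportions per bin multiplied by bin number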
- measurement-context: c terminus: a fixed tail appended
endpoint: protein stability index

• E19F = 1.17
• Y12H = 2.24
• L17E = 2.58
• G21N = 1.93
• A18K = 1.73
• G5E = 1.79
• V8T = 1.96
• C11H = 2.65
• E19G = 2.83
• A18H = 2.55
• V1C = 2.15
• G21C = 4.22
• L17S = 1.57
• K22R = 1.08
• F7R = 3.21
• V3S = 2.16
• P4Q = 2.97
• L17C = 3.36
• G14W = 1.93
• E19K = 2
• L17T = 1.75
• G21P = 2.38
• Q10F = 2.64
• F7G = 3.34
• V3R = 2.05
• F7Y = 2.01
• P4A = 1.87
• C24L = 1.86
• K22I = 1.5
• G5W = 4.67
• Y15P = 2.81
• G21W = 1.3
• F7W = 2.48
• K22C = 3.96
• R23E = 2.78
• R23C = 2.74
• C11D = 4.08
• G14Q = 1.83
• Y15R = 2
• S6D = 2.97
• P4N = 1.94
• G14A = 2.37
• C11V = 1.7
• A16H = 2.77
• K22N = 3.34
• C24G = 2.18
